assay: Selectivity index, ratio of IC50 for HEK293 cells to IC50 for human MCF7 cells; type: toxicity; conditions: HEK293 cells versus MCF7 cells, read-out: Ratio IC50
Property label: selectivity ratio

Worked set:
C=C(C)[C@@H]1CCC(C)=C[C@H]1c1c(O)cc(CCCCC)c2c1OCN(C1CCC1)C2 :: 6.4
C=C(C)[C@@H]1CCC(C)=C[C@H]1c1c(O)cc(CCCCC)c2c1OCN(C)C2 :: 1.6
C=C(C)[C@@H]1CCC(C)=C[C@H]1c1c(O)cc(CCCCC)c2c1OCN(CCCCCC)C2 :: 2.4

Below: the item to evaluate.
Challenge: Which selectivity ratio is reported for this compound? "C=C(C)[C@@H]1CCC(C)=C[C@H]1c1c(O)cc(CCCCC)c2c1OCN(CC)C2"
Response given: 1.9

====

tested on: AGS; assay: Anticancer activity against human AGS cells; format: functional, cell-based
Property label: pIC50
Note on units: pIC50 is unitless, being -log10 of a concentration expressed in mol/L.

Challenge: Which pIC50 is reported for this compound? C=C(C)[C@@H]1CCC(C)=C[C@H]1c1c(O)cc(CCCCC)cc1O [CANNABIDIOL]
Response given: 5.12

====

experiment: Metabolic stability in mouse liver microsomes assessed as intrinsic clearance at 5 uM measured upto 30 mins per mg protein in presence of NADPH by LC-MS/MS analysis; assay type: ADME, Microsome; details: read-out: CLH
Property label: microsomal CLint at 5 µM (µL/min/mg)
The answer is to be given in µL/min/mg; state only the numeric part.

C=C(C)[C@@H]1CCC(C)=C[C@H]1c1c(O)cc(CCCCC)c2c1OCN(CCCC)C2 :: 46

Below: the item to evaluate.
Challenge: Which microsomal CLint at 5 µM is reported for this compound? "C=C(C)[C@@H]1CCC(C)=C[C@H]1c1c(O)cc(CCCCC)c2c1OCN(C1CCC1)C2"
Response given: 146

====

tested on: CCRF-CEM; experiment: Anticancer activity against human CEM cells; type: functional, cell-based
Property label: IC50 (µM)
The answer is to be given in µM; state only the numeric part.

Challenge: Param readout= IC50; system= CCRF-CEM; entry= C=C(C)[C@@H]1CCC(C)=C[C@H]1c1c(O)cc(CCCCC)cc1O [CANNABIDIOL] ; returns value.
Response given: 6.3

====

test: Selectivity index, ratio of IC50 for HEK293 cells to IC50 for human HCT-116 cells; type: toxicity; conditions: HEK293 cells versus HCT-116 cells, read-out: Ratio IC50
selectivity ratio reference
# answer = number (no unit)

Worked set:
C=C(C)[C@@H]1CCC(C)=C[C@H]1c1c(O)cc(CCCCC)c2c1OCN(CC)C2 :: 0.7
C=C(C)[C@@H]1CCC(C)=C[C@H]1c1c(O)cc(CCCCC)c2c1OCN(CCCCCC)C2 :: 1.1
C=C(C)[C@@H]1CCC(C)=C[C@H]1c1c(O)cc(CCCCC)c2c1OCN(CCCC)C2 :: 8.8

Challenge: Which selectivity ratio is reported for this molecule? "C=C(C)[C@@H]1CCC(C)=C[C@H]1c1c(O)cc(CCCCC)c2c1OCN(CCCN1CCOCC1)C2"
Response given: 0.8

Challenge: Consider next the molecule "C=C(C)[C@@H]1CCC(C)=C[C@H]1c1c(O)cc(CCCCC)c2c1OCN(C1CCC1)C2" in the same way.
Response given: 3.2

====

system: SF-126; assay: Anticancer activity against human SF-126 cells; type: functional, cell-based
Property label: pIC50
Note on units: pIC50 is unitless, being -log10 of a concentration expressed in mol/L.

Challenge: Which pIC50 is reported for this compound? "C=C(C)[C@@H]1CCC(C)=C[C@H]1c1c(O)cc(CCCCC)cc1O"
Response given: 5.92

====

test: Selectivity index, ratio of IC50 for HEK293 cells to IC50 for human MCF7 cells; type: toxicity; settings: HEK293 cells versus MCF7 cells, read-out: Ratio IC50
Property label: selectivity ratio
# answer = number (no unit)

Worked set:
C=C(C)[C@@H]1CCC(C)=C[C@H]1c1c(O)cc(CCCCC)cc1O :: 6.5
C=C(C)[C@@H]1CCC(C)=C[C@H]1c1c(O)cc(CCCCC)c2c1OCN(CCC)C2 :: 3.5

Challenge: Which selectivity ratio is reported for this molecule? "C=C(C)[C@@H]1CCC(C)=C[C@H]1c1c(O)cc(CCCCC)c2c1OCN(CCCN1CCOCC1)C2"
Response given: 1.2

Challenge: Consider next the molecule "C=C(C)[C@@H]1CCC(C)=C[C@H]1c1c(O)cc(CCCCC)c2c1OCN(CCCC)C2" in the same way.
Response given: 7
